Test system: HOP-18
TEST_DESCRIPTION: NCI tumour cell line growth inhibition, 48 h
Calls of active or inactive are those of the source. No stated cut-off is given here; in the data, active = GI50 up to about 1.1 µM and inactive = higher.
Answer each item with its documented GI50.

// below: answered molecules
# MOLECULE, TARGET_DESC, RESULT
measured = [
    ("CN1C=C(C(N)=O)C2CC(O)[C@@](NC(=O)CS(N)(=O)=O)(C(=O)O)C2C1 (some centres undefined)", "HOP-18", "8.41 µM (inactive)"),
    ("O=S(=O)(O)SC/C=C\\CSS(=O)(=O)O", "HOP-18", "> 100 µM (inactive)"),
]

Consider the following items and state reported GI50 for each.
1. Cc1nnc(N/N=C2/C(=O)Nc3c(Cl)cc(Cl)cc32)n1N
2. CN1C(=O)CC(CC(=O)C2CCCCC2=O)CC1=O (centres undefined)

result:
1: 73.1 µM (inactive); 2: > 100 µM (inactive)
